Kindly state GI50 for each of the entries shown.
- System: OVCAR-8
- Experiment summary: NCI tumour cell line growth inhibition, 48 h
Active and inactive are the calls of the source. Rule as the data show it: active = GI50 up to about 1.1 µM and inactive = higher.

INSERT INTO assay_data (compound, subject_of_test, property, test_result) VALUES
  ('CC(C)=CC1CC(=O)C1(C)Sc1ccccc1 (stereo not drawn)', 'OVCAR-8', 'GI50', '> 100 µM (inactive)'),
  ('CC(=O)O[C@H]1C[C@]2(C)C(CCC3O[C@@]32C)[C@@]2(CC(c3ccoc3)OC2O)[C@@H]1C (stereo partly drawn)', 'OVCAR-8', 'GI50', '> 100 µM (inactive)'),
  ('COc1cc2c(cc1OC)C(Cc1cc(Br)c(OC)c(OC)c1)=[N+](C)CC2', 'OVCAR-8', 'GI50', '27 µM (inactive)'),
  ('Cc1cc(O)nc(/N=C(\N)Nc2ccc(Cl)cc2)n1', 'OVCAR-8', 'GI50', '> 100 µM (inactive)'),
  ('CC1OC(OC2C(O[C@H]3CC[C@@]4(C)C(=CC[C@H]5[C@@H]6C[C@@H]7O[C@]8(CC[C@@H](C)CO8)[C@@H](C)[C@@H]7[C@@]6(C)CC[C@@H]54)C3)OC(CO)C(OC3OC(CO)C(O)C3O)C2O)C(O)C(O)C1O (stereo partly drawn)', 'OVCAR-8', 'GI50', '0.535 µM (active)');

Consider the following items and state reported GI50 for each.
1. CC(O)C(C(=O)O)N(CC1(O)OCC(O)C(O)C1O)N=O (stereo not drawn)
2. CCOC(=O)[C@@H]1ON2OC(OC3CCCC3(c3ccccc3)c3ccccc3)C(OC(C)=O)[C@H]3OC(=O)[C@@H]1C32 (stereo partly drawn)
3. CCCCCC/C=C1\CCC(CN2CCCC2)C1=O (stereo not drawn)

Ans.
["> 100 µM (inactive)", "> 100 µM (inactive)", "17.2 µM (inactive)"]

====

Kindly state GI50 for each of the entries shown.
- Test system: M19-MEL
- Experiment summary: NCI tumour cell line growth inhibition, 48 h
Activity calls are given as the source filed them. No stated cut-off is given here; in the data, active = GI50 up to about 1.1 µM and inactive = higher.

INSERT INTO measurements (compound, subject_of_test, test_result) VALUES
  ('O/N=C1/CCC/C1=C\c1ccccc1', 'M19-MEL', '> 10 µM (inactive)');

Consider the following items and state reported GI50 for each.
1. Cc1c(-c2nnc(-c3ccc(Cl)cc3)o2)c(=O)n(-c2ccccc2)n1C
2. OC1CCSc2ccccc21 (centres undefined)

Ans.
1: > 100 µM (inactive); 2: > 100 µM (inactive)

Query `COc1cc(Br)c(/C=N\c2cccc3ccc(OS(=O)(=O)c4ccc([N+](=O)[O-])cc4)cc23)cc1OC` yields GI50 of > 100 µM (inactive)

====

- Test system: A498
- Experiment summary: NCI tumour cell line growth inhibition, 48 h
Active and inactive are the calls of the source. Rule as the data show it: active = GI50 up to about 1.1 µM and inactive = higher.
Please answer using one outcome listed in active, inactive

INSERT INTO measurements (compound, subject_of_test, category) VALUES
  ('C[C@]12CC[C@H]3[C@@H](CC=C4C[C@@H](N5CCCC5)CC[C@@]43C)[C@@H]1C[C@H](N1CCOCC1)[C@@H]2O', 'A498', 'inactive');

Qu. State the result this test recorded for COC(=O)[C@]12CCC(C)(C)C[C@H]1[C@H]1C(=O)C=C3[C@@]4(C)C=C(C#N)C(=O)C(C)(C)[C@@H]4CC[C@@]3(C)[C@]1(C)CC2 [BARDOXOLONE METHYL] .
Ans. active

Qu. State the result this test recorded for CC(=O)CCCCC(=O)Nc1ccc(CC(NC(=O)OC(C)(C)C)C(=O)NCC(=O)OCc2ccccc2)cc1 (configuration not stated) .
Ans. inactive

Qu. State the result this test recorded for O=C(CCN1CCCCC1CCO)Nc1ccc2c(c1)C(=O)c1ccc(NC(=O)CCN3CCCCC3CCO)cc1C2=O (configuration not stated) .
Ans. inactive
